# Study system: Focal adhesion kinase 1 (Homo sapiens) (UniProt Q05397)
# Sequence (Q05397 whole entry, looked up): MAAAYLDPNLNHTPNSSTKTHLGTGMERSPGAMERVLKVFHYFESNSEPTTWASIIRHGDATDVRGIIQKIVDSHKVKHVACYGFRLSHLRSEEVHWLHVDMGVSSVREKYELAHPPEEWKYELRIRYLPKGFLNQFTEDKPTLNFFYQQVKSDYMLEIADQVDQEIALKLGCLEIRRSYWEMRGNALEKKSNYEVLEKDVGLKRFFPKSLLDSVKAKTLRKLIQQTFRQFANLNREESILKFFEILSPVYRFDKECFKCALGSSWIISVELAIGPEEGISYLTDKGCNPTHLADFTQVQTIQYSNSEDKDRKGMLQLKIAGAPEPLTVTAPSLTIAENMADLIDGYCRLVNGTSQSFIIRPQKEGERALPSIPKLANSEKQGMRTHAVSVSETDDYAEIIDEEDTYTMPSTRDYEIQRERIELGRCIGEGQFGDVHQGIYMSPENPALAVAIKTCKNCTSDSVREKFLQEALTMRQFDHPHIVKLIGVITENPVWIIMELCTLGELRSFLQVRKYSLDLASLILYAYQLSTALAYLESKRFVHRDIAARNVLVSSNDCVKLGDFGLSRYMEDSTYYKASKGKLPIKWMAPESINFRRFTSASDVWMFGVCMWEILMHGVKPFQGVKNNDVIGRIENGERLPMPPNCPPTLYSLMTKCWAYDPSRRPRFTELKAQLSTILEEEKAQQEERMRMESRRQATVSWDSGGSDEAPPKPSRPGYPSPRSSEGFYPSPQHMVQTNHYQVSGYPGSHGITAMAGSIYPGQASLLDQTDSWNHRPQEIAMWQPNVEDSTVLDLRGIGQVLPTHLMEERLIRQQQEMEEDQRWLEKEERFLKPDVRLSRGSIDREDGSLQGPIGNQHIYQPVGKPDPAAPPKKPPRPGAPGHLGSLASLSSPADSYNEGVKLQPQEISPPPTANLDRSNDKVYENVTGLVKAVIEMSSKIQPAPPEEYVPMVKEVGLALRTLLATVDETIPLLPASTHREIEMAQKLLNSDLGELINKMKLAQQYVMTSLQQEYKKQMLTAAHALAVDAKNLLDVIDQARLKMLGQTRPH
# Assay explanation: small-molecule microarray binders of FAK, primary screen, biochemical, 635/667 nm fluorescence, BSA, DTT (AID 1130);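 note: composite of spot emission at 667 nm and signal to noise over triplicate slides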
# Reported conditions: PTK2 binding, 635 nm fluorescence, higher = more signal
composite z-score below 0.4 gives no (0); composite z-score at or above it gives yes (1).

{"columns": ["Compound", "Cat"],
 "data": [
  ["COC(=O)[C@@]1(Cc2ccc(F)cc2)[C@H]2c3cc(C(=O)N4CCCC4)n(CCO)c3C[C@H]2CN1C(=O)c1ccccc1", "yes (1)"],
  ["CCCCC(O)C1C=CC2C(=O)N(C)C(=O)C2N1Nc1ccccc1 (stereo not drawn)", "no (0)"],
  ["CCOC(=O)C1=CC[C@@H](c2ccccc2Cl)N(S(=O)(=O)c2ccc(C)cc2)[C@H]1c1cccc(OC)c1", "no (0)"],
  ["C=CC[C@@]1(C(=O)N(C)C)N=C(c2ccc(OCCCO)cc2)O[C@@H]1c1ccccc1", "no (0)"],
  ["C=CCC(OC(C)=O)[C@@H]1[C@@H](N(Cc2ccc(-c3ccccc3)cc2)C(=O)c2cccc3ccccc23)c2cc(OCCCO)ccc2N1C(=O)c1ccc2ccccc2c1 (stereo partly drawn)", "yes (1)"]
]}

hey, is composite z-score for this one >= 0.4? N#Cc1ccc(C(O)C2C=CC3C(=O)N(c4ccccc4)C(=O)C3N2Nc2ccc([N+](=O)[O-])cc2)cc1 (stereo not drawn)
yes (1)

Hi team, for "CCOC(=O)C1=C(C(=O)OCC)N(S(=O)(=O)CC[Si](C)(C)C)[C@H](c2ccccc2)CC1" , is the recorded composite z-score at or above 0.4?
no (0)

# bool: composite z-score of "COCCCNC(=O)[C@@H]1c2ccccc2C(=O)N(Cc2cc(C(F)(F)F)cc(C(F)(F)F)c2)[C@H]1c1ccc(CO)cc1" >= 0.4
no (0)

###

# Study system: Pro-neuregulin-1, membrane-bound isoform (Homo sapiens) (UniProt Q02297)
# Sequence (Q02297 whole entry, looked up, canonical isoform): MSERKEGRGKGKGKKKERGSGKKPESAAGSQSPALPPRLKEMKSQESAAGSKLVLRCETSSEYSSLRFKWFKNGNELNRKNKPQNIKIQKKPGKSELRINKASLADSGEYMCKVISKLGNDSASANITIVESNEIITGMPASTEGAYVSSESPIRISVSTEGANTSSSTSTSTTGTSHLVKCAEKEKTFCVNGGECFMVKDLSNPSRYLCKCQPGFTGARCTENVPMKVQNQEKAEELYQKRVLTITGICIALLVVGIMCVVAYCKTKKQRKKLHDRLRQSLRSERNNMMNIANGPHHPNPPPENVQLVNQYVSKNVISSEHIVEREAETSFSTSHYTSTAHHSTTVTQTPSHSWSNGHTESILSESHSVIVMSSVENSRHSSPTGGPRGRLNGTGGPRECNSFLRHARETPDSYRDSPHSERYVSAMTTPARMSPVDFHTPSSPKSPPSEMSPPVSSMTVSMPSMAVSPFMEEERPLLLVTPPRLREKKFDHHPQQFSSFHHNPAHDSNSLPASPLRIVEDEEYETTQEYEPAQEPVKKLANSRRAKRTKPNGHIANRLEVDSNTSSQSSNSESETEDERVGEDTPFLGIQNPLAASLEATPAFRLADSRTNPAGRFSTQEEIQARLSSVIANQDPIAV
# Assay explanation: NRG1 binders on small-molecule microarrays, primary screen, psychiatric disease protein project, biochemical, small-molecule microarray, fluorescence 635/667 (AID 1075);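 note: score combines 667 nm spot fluorescence with signal to noise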
# Reported conditions: NRG1 binding, 635 nm fluorescence, higher = more signal
Readout name: composite z-score
Write the number on its own, no unit after it.

Guide cases for composite z-score, answers given:
{"columns": ["Compound", "Study system", "composite z-score"],
 "data": [
  ["CCCCN1CC=CC23O[C@@H]4C=CCOC(=O)[C@@H]4[C@H]2C(=O)N(C(CO)C(C)C)[C@@H]3C1=O (stereo partly specified)", "Pro-neuregulin-1, membrane-bound isoform (Homo sapiens) (UniProt Q02297)", -0.397],
  ["Cc1ccccc1C(O)C1C=CC2C(=O)N(c3ccccc3)C(=O)C2N1Nc1ccccc1F (stereo unspecified)", "Pro-neuregulin-1, membrane-bound isoform (Homo sapiens) (UniProt Q02297)", 2.15],
  ["O=C1c2ccccc2[C@@]2(Cc3ccccc3N(Cc3ccccc3)C2=O)[C@H](c2ccc(CO)cc2)N1Cc1ccccc1", "Pro-neuregulin-1, membrane-bound isoform (Homo sapiens) (UniProt Q02297)", -0.605],
  ["COc1ccc(NC(=O)O[C@H]2[C@H](OC(=O)Nc3ccc4c(c3)OCO4)[C@H](OC(=O)Nc3ccc4c(c3)OCO4)[C@@H](OC)O[C@@H]2CO)cc1", "Pro-neuregulin-1, membrane-bound isoform (Homo sapiens) (UniProt Q02297)", 0.978],
  ["CC1CC/C=C\\[C@H]2OC34C=CCN(c5ccc(Cl)cc5)C(=O)[C@H]3N(CCCO)C(=O)[C@]4(C)C2C(=O)O1 (stereo partly specified)", "Pro-neuregulin-1, membrane-bound isoform (Homo sapiens) (UniProt Q02297)", 1.38]
]}

Report its composite z-score with Pro-neuregulin-1, membrane-bound isoform (Homo sapiens) (UniProt Q02297) as the test system: "COC(=O)[C@@]1(Cc2ccc(F)cc2)[C@H]2c3cc(C(=O)N(C)C)n(CCO)c3C[C@H]2CN1C(=O)c1ccccc1"
2.16

State the measured composite z-score (Pro-neuregulin-1, membrane-bound isoform (Homo sapiens) (UniProt Q02297)) of "C=C(COC)C(=O)CC[C@@H](OC(=O)c1cccnc1)c1cccc(OCCO)c1"
0.851

With Pro-neuregulin-1, membrane-bound isoform (Homo sapiens) (UniProt Q02297) as the test system, provide measured composite z-score for this compound: COC(=O)C1(CC(C)C)C=C2C(=C(C(C)C)C(=O)C2C)CN1 (stereo unspecified)
0.607
